Would you kindly list IC50 for each of these compounds?
- Study target: ligand binding domain of human ROR gamma (Homo sapiens, UniProt P51449)
- Construct: NM_001001523; expressed in transfected cells; host or cells: HEK293T
- Sequence (P51449 247-497 isoform P51449-2): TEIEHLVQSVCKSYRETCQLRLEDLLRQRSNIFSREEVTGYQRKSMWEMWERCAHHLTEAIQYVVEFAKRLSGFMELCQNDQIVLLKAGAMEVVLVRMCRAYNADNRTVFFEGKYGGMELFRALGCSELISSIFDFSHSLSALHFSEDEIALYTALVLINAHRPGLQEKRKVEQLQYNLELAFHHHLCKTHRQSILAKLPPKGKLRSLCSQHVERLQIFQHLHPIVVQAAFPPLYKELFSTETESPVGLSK
- Test name: ROR gamma reporter gene assay (GAL4-RORγ LBD luciferase, Dual-Glo)
- Assay type: cell-based
- Run parameters: HEK293T cells transfected with pM-ROR gamma, 8 concentrations 3.5 nM to 10.5 μM, 24 h incubation; read-out: result (pIC50, inhibition of RORγ transcriptional activity) (converted)
Give the number; pM is assumed, so skip it.

Q. Recorded IC50 for `CS(=O)(=O)c1cc(Cl)c(C(=O)CN(Cc2cc(F)cc(F)c2)C(=O)c2cnn([C@H]3CC[C@H](C(=O)O)CC3)c2C(F)(F)F)c(Cl)c1` , please?
A. 380000

Q. `Cc1c(C(=O)N(CC(=O)c2c(Cl)cccc2Cl)[C@H]2C[C@@H]3[C@H](C2)C3(C)C)cnn1[C@H]1CC[C@](C)(C(=O)O)CC1` , same question.
A. 45700

Q. `CC1(C)[C@@H]2C[C@H](N(CC(=O)c3c(F)cncc3Cl)C(=O)c3cnn([C@H]4CC[C@](C)(C(=O)O)CC4)c3C(F)(F)F)C[C@@H]21` , same question.
A. 17000

Q. `N#Cc1ccc(CN(CC(=O)c2c(Cl)cncc2Cl)C(=O)c2cnn([C@H]3CC[C@H](C(=O)O)CC3)c2C(F)(F)F)cc1` , same question.
A. 166000

Q. `O=C(CN(Cc1ccc(F)cc1)C(=O)c1cnn([C@H]2CC[C@H](C(=O)O)CC2)c1CC(F)(F)F)c1c(Cl)cncc1Cl` , same question.
A. 195000

Q. `O=C(CN(Cc1cc(F)ccc1F)C(=O)c1cnn([C@H]2CC[C@H](C(=O)O)CC2)c1C(F)(F)F)c1c(Cl)cncc1Cl` , same question.
A. 58900

Q. `CC(C)=CCN(CC(=O)c1c(Cl)cncc1Cl)C(=O)c1cnn([C@H]2CC[C@](C)(C(=O)O)CC2)c1C(F)(F)F` , same question.
A. 41700

Q. `CC1(CN(CC(=O)c2c(Cl)cncc2Cl)C(=O)c2cnn(C34CCC(C(=O)O)(CC3)CC4)c2C(F)(F)F)CC1` , same question.
A. 9120

Q. `O=C(CN(Cc1ccccc1)C(=O)c1cnn([C@H]2CC[C@H](C(=O)O)CC2)c1C(F)(F)F)c1c(Cl)cncc1Cl` , same question.
A. 56200

Q. `CC(C)(C)OCCN(CC(=O)c1c(Cl)cc(Cl)cc1Cl)C(=O)c1cnn([C@H]2CC[C@](C)(C(=O)O)CC2)c1C(F)(F)F` , same question.
A. 33100

Q. CC1(C)[C@@H]2C[C@H](N(CC(O)c3ccccn3)C(=O)c3cnn([C@H]4CC[C@](C)(C(=O)O)CC4)c3C(F)(F)F)C[C@@H]21 (some centres unmarked) , same question.
A. 2.82e+06

Q. `C[C@]1(C(=O)O)CC[C@H](n2ncc(C(=O)N(CC(=O)c3c(Cl)cncc3Cl)CC3(C(F)(F)F)CC3)c2C(F)(F)F)CC1` , same question.
A. 24000

Q. `CC(C)CN(CC(=O)c1c(Cl)cncc1Cl)C(=O)c1cnn([C@H]2CC[C@H](C(=O)O)CC2)c1C(F)(F)F` , same question.
A. 282000

Q. `O=C(CN(Cc1ccnnc1)C(=O)c1cnn([C@H]2CC[C@H](C(=O)O)CC2)c1C(F)(F)F)c1c(Cl)cccc1Cl` , same question.
A. 8.13e+06

Q. `Cc1ccnc(C)c1C(=O)CN(Cc1cc(F)cc(F)c1)C(=O)c1cnn([C@H]2CC[C@H](C(=O)O)CC2)c1C(F)(F)F` , same question.
A. 245000

Q. `CC[C@]1(C(=O)O)CC[C@H](n2ncc(C(=O)N(CC(=O)c3c(Cl)cncc3Cl)Cc3cc(F)cc(F)c3)c2C(F)(F)F)CC1` , same question.
A. 1.02e+06

Q. `Cc1c(C(=O)N(CC(=O)c2c(Cl)cncc2Cl)CC2CC(C)(C)C2)cnn1[C@H]1CC[C@](C)(C(=O)O)CC1` , same question.
A. 257000

Q. `COc1cccc(Cl)c1C(=O)CN(CC#CC(C)(C)C)C(=O)c1cnn([C@H]2CC[C@](C)(C(=O)O)CC2)c1C(F)(F)F` , same question.
A. 324000

Q. `O=C(CN(C(=O)c1cnn([C@H]2CC[C@H](C(=O)O)CC2)c1C(F)(F)F)C1Cc2ccccc2C1)c1c(Cl)cncc1Cl` , same question.
A. 112000

Q. `COc1cccc(Cl)c1C(=O)CN(C(=O)c1cnn([C@H]2CC[C@](C)(C(=O)O)CC2)c1C(F)(F)F)C1CCC(C)(C)CC1` , same question.
A. 55000
